- tgt: Bem1-1, P29366
- Sequence (P29366 55-141): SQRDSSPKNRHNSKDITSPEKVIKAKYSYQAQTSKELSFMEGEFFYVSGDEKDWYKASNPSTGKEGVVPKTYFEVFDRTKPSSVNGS
- protocolDescription: SPOT array
- reportedConditions: median of control spots 4282
experimentalEndpoint: SPOT intensity

P = RKLRTVPGVPLIHLT
Q = LTRRFPFLFPFDTRM
Query: Pick one, P or Q : lowest reported SPOT intensity. State the label of the item chosen.
Result: P
